- assay.system: GCN2 kinase (Homo sapiens, UniProt Q9P2K8)
- Sequence (Q9P2K8 whole entry): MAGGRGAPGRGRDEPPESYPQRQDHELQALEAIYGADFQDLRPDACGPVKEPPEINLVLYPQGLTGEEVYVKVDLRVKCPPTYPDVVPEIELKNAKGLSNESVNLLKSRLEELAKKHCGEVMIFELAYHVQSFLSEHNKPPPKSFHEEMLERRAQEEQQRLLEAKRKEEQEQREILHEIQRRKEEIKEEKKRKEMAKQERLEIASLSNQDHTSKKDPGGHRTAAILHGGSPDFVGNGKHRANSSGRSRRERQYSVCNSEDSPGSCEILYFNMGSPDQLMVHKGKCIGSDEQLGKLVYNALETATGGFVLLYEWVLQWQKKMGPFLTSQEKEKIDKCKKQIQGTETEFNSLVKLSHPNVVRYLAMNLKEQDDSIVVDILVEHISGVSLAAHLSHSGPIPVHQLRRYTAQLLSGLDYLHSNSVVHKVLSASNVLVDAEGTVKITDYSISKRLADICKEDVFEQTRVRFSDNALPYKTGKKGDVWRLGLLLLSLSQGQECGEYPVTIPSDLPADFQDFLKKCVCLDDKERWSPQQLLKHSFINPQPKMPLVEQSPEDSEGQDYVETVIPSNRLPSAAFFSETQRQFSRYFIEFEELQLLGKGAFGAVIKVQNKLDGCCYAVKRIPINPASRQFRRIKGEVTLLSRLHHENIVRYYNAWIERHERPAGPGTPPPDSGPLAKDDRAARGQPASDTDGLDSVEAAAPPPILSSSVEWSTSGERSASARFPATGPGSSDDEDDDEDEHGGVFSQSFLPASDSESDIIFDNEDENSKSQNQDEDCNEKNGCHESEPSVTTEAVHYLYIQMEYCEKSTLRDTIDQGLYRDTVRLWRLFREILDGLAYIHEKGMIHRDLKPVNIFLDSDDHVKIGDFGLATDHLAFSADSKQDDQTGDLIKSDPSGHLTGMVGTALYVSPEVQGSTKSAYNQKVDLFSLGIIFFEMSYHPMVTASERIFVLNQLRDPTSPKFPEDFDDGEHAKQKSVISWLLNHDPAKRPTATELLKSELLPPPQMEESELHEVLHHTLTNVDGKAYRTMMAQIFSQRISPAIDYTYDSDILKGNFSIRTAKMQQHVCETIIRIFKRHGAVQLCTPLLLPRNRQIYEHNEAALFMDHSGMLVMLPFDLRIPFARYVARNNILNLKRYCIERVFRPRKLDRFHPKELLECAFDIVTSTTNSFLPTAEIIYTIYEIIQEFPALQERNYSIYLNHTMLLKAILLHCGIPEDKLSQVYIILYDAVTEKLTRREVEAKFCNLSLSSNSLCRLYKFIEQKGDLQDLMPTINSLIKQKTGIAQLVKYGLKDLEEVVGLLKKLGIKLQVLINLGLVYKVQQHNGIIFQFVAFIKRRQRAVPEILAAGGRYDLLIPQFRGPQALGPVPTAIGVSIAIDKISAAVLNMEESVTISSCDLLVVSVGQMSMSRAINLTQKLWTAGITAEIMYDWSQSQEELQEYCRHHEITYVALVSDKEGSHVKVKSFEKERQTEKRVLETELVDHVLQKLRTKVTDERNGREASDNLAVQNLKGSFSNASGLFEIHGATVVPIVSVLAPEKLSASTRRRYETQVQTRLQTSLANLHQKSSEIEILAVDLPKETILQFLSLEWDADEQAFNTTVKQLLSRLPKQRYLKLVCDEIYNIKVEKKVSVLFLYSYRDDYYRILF
- test.description: GCN2 enzyme inhibition assay (Transcreener ADP2 fluorescence polarization)
- Type: biochemical
- test.settings: Enzyme activity for compounds of Formula IV; Ki(app), 280 μM ATP, 25° C.
pKi: −log10 of the molar value.
property.label: pKi

>>> print(df.to_string())
                                   compound  property_label        result
0  O=C1CCN(c2ccnc(-c3cnc4cnc(C(F)F)cn34)n2)CCN1 [IV-49]             pKi  6.00 to 7.00

The recorded pKi for entry CC1C(c2cn[nH]c2)CCCN1c1nccc(-c2cnc3cnc(C(F)(F)F)cn23)n1 (centres unmarked) [IV-485] equals > 8.00

The recorded pKi for entry O=C1NCCN1C1CCCN(c2ccnc(-c3cnc4cnc(C(F)(F)F)cn34)n2)C1 (centres unmarked) [IV-584] equals 6.00 to 7.00

The recorded pKi for entry CC1NCC(C)N(c2ccnc(-c3cnc4cnc(C(F)(F)F)cn34)n2)C1c1ccc(=O)[nH]c1 (centres unmarked) [IV-676] equals 6.00 to 7.00
